Data provenance: patent US20250171495A1

Would you mind telling me the reported pIC50 of each entry?
Molecular target: Factor Xa (Homo sapiens, UniProt P00742)
Construct: TMPRSS2; Matriptase; Hepsin; HGFA; Thrombin; Factor Xa
Sequence (P00742 235-488 limits assumed): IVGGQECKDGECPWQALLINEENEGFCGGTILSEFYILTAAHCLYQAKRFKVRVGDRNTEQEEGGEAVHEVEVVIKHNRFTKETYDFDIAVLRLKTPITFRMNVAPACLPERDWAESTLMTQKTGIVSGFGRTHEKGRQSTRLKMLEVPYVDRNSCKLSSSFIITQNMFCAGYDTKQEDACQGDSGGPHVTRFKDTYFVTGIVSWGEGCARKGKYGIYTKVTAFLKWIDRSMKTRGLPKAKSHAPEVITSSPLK
Sequence (P00742 41-179 partner limits assumed): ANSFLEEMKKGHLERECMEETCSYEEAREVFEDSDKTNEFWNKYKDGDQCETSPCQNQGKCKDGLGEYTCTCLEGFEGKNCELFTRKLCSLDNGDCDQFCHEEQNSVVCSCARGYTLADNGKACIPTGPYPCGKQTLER
Assay: Fluorogenic assay, Factor Xa
Assay type: biochemical
Conditions: read-out: Factor Xa IC50
The meaning of pIC50 here: minus log10 of the concentration in molar units.

Enquiry: Read off the recorded pIC50 for "CC(=O)N[C@H](Cc1c[nH]c2ccccc12)C(=O)N[C@@H](CC(C)C)C(=O)N[C@@H](CCCNC(=N)N)C(=O)c1nc2ccccc2s1"
Return: 5.84

Enquiry: Please give measured pIC50 of the following entry: "N=C(N)NCCC[C@H](NC(=O)[C@H](Cc1ccccc1)NC(=O)[C@H](CCC(N)=O)NC(=O)c1ccccc1)C(=O)c1nc2ccccc2s1"
Return: 5.80

Enquiry: Answer with the recorded pIC50 for the compound listed here: "CC(=O)N[C@H](Cc1c[nH]c2ccccc12)C(=O)N[C@@H](Cc1ccccc1)C(=O)N[C@@H](CCCNC(=N)N)C(=O)c1nc2ccccc2s1"
Return: 7.01

====

Answer each item with its documented IC50.
Biological target: matriptase (Homo sapiens, UniProt Q9Y5Y6)
Construct: purchased R&D Systems 3946-SEB-010
Sequence (Q9Y5Y6 615-855 limits assumed): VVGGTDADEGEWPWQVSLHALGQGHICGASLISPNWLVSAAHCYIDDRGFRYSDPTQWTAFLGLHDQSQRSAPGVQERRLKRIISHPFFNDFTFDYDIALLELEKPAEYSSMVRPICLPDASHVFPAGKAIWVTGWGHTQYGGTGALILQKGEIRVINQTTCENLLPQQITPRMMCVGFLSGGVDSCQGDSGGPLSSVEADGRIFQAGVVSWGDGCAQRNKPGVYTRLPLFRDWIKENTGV
Assay: Fluorogenic kinetic enzyme inhibitor assay, matriptase
Assay type: biochemical
Numbered stars: 1 amine (or outer) side, 2 acyl side, 3 side chain; on linkers, the order of the positions; unused ones are H or OH. Square brackets hold non-standard residues; d marks the D form. Peptide text beside a SMILES is read from it. X1 = N=C(N)NCCC[C@H](N[*:1])C(=O)c1nc2ccc(C(=O)[*:2])cc2s1
Report field: quantity (unit follows the number).

Enquiry: Tell me IC50 of "CC(=O)N[C@H]1Cc2ccc(cc2)OC/C=C\C[C@@H](C(=O)N[C@@H](CCCNC(=N)N)C(=O)c2nc3ccccc3s2)NC(=O)[C@H](CC(C)C)NC1=O" when tested on matriptase (Homo sapiens, UniProt Q9Y5Y6).
Return: 3.4 nM

Enquiry: Fill: IC50 (matriptase (Homo sapiens, UniProt Q9Y5Y6)) for this compound "CC(=O)N[C@@H](CC(C)C)C(=O)N[C@@H](CCC(N)=O)C(=O)N[C@@H](Cc1ccccc1)C(=O)N[C@@H](CCCNC(=N)N)C(=O)c1nc2ccccc2s1"
Return: 1.8 nM

Enquiry: Please look at "CC(=O)N[C@@H](Cc1cncn1COCc1ccccc1)C(=O)N[C@@H](CCCCNC(=N)N)C(=O)N[C@@H](CCC(C)C)C(=O)N[C@H](CCCNC(=N)N)C(=O)c1nc2ccccc2s1" and tell me its recorded IC50 on matriptase (Homo sapiens, UniProt Q9Y5Y6).
Return: 3.02 nM

Enquiry: Give measured IC50 for CC(=O)N[C@@H](CO)C(=O)N[C@H](Cc1c[nH]c2ccccc12)C(=O)N[C@@H](CC(C)C)C(=O)N[C@@H](CCCNC(=N)N)C(=O)c1nc2ccc(C(=O)N[C@H](C(N)=O)C(C)C)cc2s1 [JH1114] (Ac-S[dW]L[X1]V-NH2) (matriptase (Homo sapiens, UniProt Q9Y5Y6)).
Return: 231 nM

Enquiry: Quote matriptase (Homo sapiens, UniProt Q9Y5Y6) IC50 for entry CC(=O)N1C(C(=O)N[C@@H](CCC(=O)OC2CCCCC2)C(=O)N[C@@H](Cc2ccc(F)cc2)C(=O)N[C@@H](CCCNC(=N)N)C(=O)c2nc3ccccc3s2)CC2CCCCC21 (some centres unmarked) .
Return: 1.23 nM
